Test system: CTX-M-15-containing Escherichia coli strain (TK-1747)
test-name: Antibacterial activity evaluation test, MIC by broth microdilution (CLSI)
Assay type: cell-based
assay-context: Escherichia coli TK-1747
Please go through the items and note down their Antibacterial activity (MIC) Escherichia coli TK-1747.
Numbers only, in µg/mL.

Please look at the items below and tell me Antibacterial activity (MIC) Escherichia coli TK-1747 for each one, in order.
1. CC(C)(O/N=C(\C(=O)N[C@@H]1C(=O)N2C[C@@](C(=O)O)(N3CCN(NC(=O)c4c[nH]c5cc(O)c(O)cc5c4=O)C3=O)S[C@H]12)c1csc(N)n1)C(=O)O
2. CC(C)(O/N=C(\C(=O)NC1C(=O)N2C[C@@](C(=O)O)(N3CCN(NC(=O)C(=O)c4c(F)cc(O)c(O)c4Cl)C3=O)S[C@H]12)c1csc(N)n1)C(=O)O (stereo partly drawn)
3. CC(C)(O/N=C(\C(=O)NC1C(=O)N2C[C@@](C(=O)O)(N3CCN(NC(=O)NNC(=O)C(=O)c4ccc(O)c(O)c4Cl)C3=O)S[C@H]12)c1csc(N)n1)C(=O)O (stereo partly drawn)
4. CC(C)(O/N=C(\C(=O)NC1C(=O)N2C[C@@](C(=O)O)(N3CCC[C@H](NC(=O)C(=O)c4ccc(O)c(O)c4Cl)C3=O)S[C@H]12)c1csc(N)n1)C(=O)O (stereo partly drawn)

Reply:
1: 0.5; 2: 0.12; 3: 0.5; 4: 0.12

Task item: Report Antibacterial activity (MIC) Escherichia coli TK-1747 for CC(C)(O/N=C(\C(=O)NC1C(=O)N2C[C@@](C(=O)O)(N3CCN(NC(=O)C(=O)c4cc(O)c(O)cc4F)C3=O)S[C@H]12)c1csc(N)n1)C(=O)O (stereo partly drawn) please.
Reply: 1

* * *

System: VIM-2-containing Pseudomonas aeruginosa strain (S-3779)
test-name: Antibacterial activity evaluation test, MIC by broth microdilution (CLSI)
Type: cell-based
assay-context: Pseudomonas aeruginosa S-3779
property-name: Antibacterial activity (MIC) Pseudomonas aeruginosa S-3779 (µg/mL)
Answers are plain numbers, in µg/mL.

As a guide, the following entries are already answered.
compound	assay-result
C=C(O/N=C(\C(=O)NC1C(=O)N2C[C@@](C(=O)O)(N3CCN(NC(=O)C(=O)c4ccc(O)c(O)c4Cl)C3=O)S[C@H]12)c1csc(N)n1)C(=O)O (stereo partly drawn) [Example 144]	0.25
CC(C)(O/N=C(\C(=O)N[C@@H]1C(=O)N2C[C@@](C(=O)O)(N3CCN(NC(=O)c4c[nH]c5cc(O)c(O)cc5c4=O)C3=O)S[C@H]12)c1csc(N)n1)C(=O)O [Example 154]	2
CC(C)(O/N=C(\C(=O)NC1C(=O)N2C[C@@](C(=O)O)(N3CCN(NC(=O)C(=O)c4cc(O)c(O)cc4F)C3=O)S[C@H]12)c1csc(N)n1)C(=O)O (stereo partly drawn) [Example 147]	1
CC(C)(O/N=C(\C(=O)NC1C(=O)N2C[C@@](C(=O)O)(N3CCN(NC(=O)NNC(=O)C(=O)c4ccc(O)c(O)c4Cl)C3=O)S[C@H]12)c1csc(N)n1)C(=O)O (stereo partly drawn) [Example 153]	1
CC(C)(O/N=C(\C(=O)NC1C(=O)N2C[C@@](C(=O)O)(N3CCN(NC(=O)C(=O)c4c(F)cc(O)c(O)c4Cl)C3=O)S[C@H]12)c1csc(N)n1)C(=O)O (stereo partly drawn) [Example 143]	0.25

Task item: Data request, read-out Antibacterial activity (MIC) Pseudomonas aeruginosa S-3779, for CC(C)(O/N=C(\C(=O)NC1C(=O)N2C[C@@](C(=O)O)(N3CCC[C@H](NC(=O)C(=O)c4ccc(O)c(O)c4Cl)C3=O)S[C@H]12)c1csc(N)n1)C(=O)O (stereo partly drawn) [Example 156]
Reply: 1

* * *

I'd be grateful if you could share measured Antibacterial activity (MIC) Klebsiella pneumoniae Y-1062 for these entries.
Test system: OXA-48-containing Klebsiella pneumoniae strain (Y-1062)
test-name: Antibacterial activity evaluation test, MIC by broth microdilution (CLSI)
Format: cell-based
assay-context: Klebsiella pneumoniae Y-1062
One number for each entry, in µg/mL.

Some solved entries appear below for comparison.
compound	assay-result
CC(C)(O/N=C(\C(=O)NC1C(=O)N2C[C@@](C(=O)O)(N3CCN(NC(=O)NNC(=O)C(=O)c4ccc(O)c(O)c4Cl)C3=O)S[C@H]12)c1csc(N)n1)C(=O)O (stereo partly drawn)	4
CC(C)(O/N=C(\C(=O)NC1C(=O)N2C[C@@](C(=O)O)(N3CCN(NC(=O)C(=O)c4cc(O)c(O)cc4F)C3=O)S[C@H]12)c1csc(N)n1)C(=O)O (stereo partly drawn)	4
C=C(O/N=C(\C(=O)NC1C(=O)N2C[C@@](C(=O)O)(N3CCN(NC(=O)C(=O)c4ccc(O)c(O)c4Cl)C3=O)S[C@H]12)c1csc(N)n1)C(=O)O (stereo partly drawn)	0.5
CC(C)(O/N=C(\C(=O)NC1C(=O)N2C[C@@](C(=O)O)(N3CCN(NC(=O)C(=O)c4c(F)cc(O)c(O)c4Cl)C3=O)S[C@H]12)c1csc(N)n1)C(=O)O (stereo partly drawn)	2
CC(C)(O/N=C(\C(=O)N[C@@H]1C(=O)N2C[C@@](C(=O)O)(N3CCN(NC(=O)c4c[nH]c5cc(O)c(O)cc5c4=O)C3=O)S[C@H]12)c1csc(N)n1)C(=O)O	2

Task item: Find the recorded Antibacterial activity (MIC) Klebsiella pneumoniae Y-1062 belonging to CC(C)(O/N=C(\C(=O)NC1C(=O)N2C[C@@](C(=O)O)(N3CCC[C@H](NC(=O)C(=O)c4ccc(O)c(O)c4Cl)C3=O)S[C@H]12)c1csc(N)n1)C(=O)O (stereo partly drawn) and report it.
Reply: 0.5

* * *

Tested on: VIM-2-containing Pseudomonas aeruginosa strain (S-3779)
test-name: Antibacterial activity evaluation test, MIC by broth microdilution (CLSI)
Format: cell-based
assay-context: Pseudomonas aeruginosa
property-name: MIC (µg/mL)
Answers are plain numbers, in µg/mL.

molecule	MIC, µg/mL
CC[C@H](O/N=C(\C(=O)N[C@@H]1C(=O)N2C[C@@](C(=O)O)(N3CCN(NC(=O)C(=O)c4ccc(O)c(O)c4Cl)C3=O)S[C@H]12)c1csc(N)n1)C(=O)O [Example 105]	0.25

Batch: MIC for all items listed.
1. CC(C)(O/N=C(\C(=O)N[C@@H]1C(=O)N2C[C@@](C(=O)O)(N3CC(=O)N(NC(=O)C(=O)c4ccc(O)c(O)c4Cl)CC3=O)S[C@H]12)c1csc(N)n1)C(=O)O [Example 82]
2. CC(C)(O/N=C(\C(=O)N[C@@H]1C(=O)N2C[C@@](C(=O)O)(N3CCN(NC(=O)C(=O)NCCNC(=O)c4ccc(O)c(O)c4Cl)C3=O)S[C@H]12)c1csc(N)n1)C(=O)O [Example 68]
3. Nc1nc(/C(=N/OC2(C(=O)O)CC2)C(=O)N[C@@H]2C(=O)N3C[C@@](C(=O)O)(N4CCN(NC(=O)CCNC(=O)C(=O)c5ccc(O)c(O)c5Cl)C4=O)S[C@H]23)cs1 [Example 31]

Reply:
1
2
0.25

Task item: Give recorded MIC with VIM-2-containing Pseudomonas aeruginosa strain (S-3779) for the following molecule: CC(C)(O/N=C(\C(=O)N[C@@H]1C(=O)N2C[C@@](C(=O)O)(n3ncn(NC(=O)C(=O)c4ccc(O)c(O)c4Cl)c3=O)S[C@H]12)c1csc(N)n1)C(=O)O [Example 26]
Reply: 0.25

* * *

Assign MIC to each entry below.
Test system: VIM-2-containing Pseudomonas aeruginosa strain (S-3779)
test-name: Antibacterial activity evaluation test, MIC by broth microdilution (CLSI)
Assay type: cell-based
assay-context: Pseudomonas aeruginosa
Answers are plain numbers, in µg/mL.

Worked examples follow.
molecule	assay-result
CC(C)(O/N=C(\C(=O)N[C@@H]1C(=O)N2C[C@@](C(=O)O)(N3CCN(NC(=O)C(=O)NNC(=O)C(=O)c4ccc(O)c(O)c4Cl)C3=O)S[C@H]12)c1csc(N)n1)C(=O)O [Example 88]	0.5
CC(C)(O/N=C(\C(=O)N[C@@H]1C(=O)N2C[C@@](C(=O)O)(n3cc(CNC(=O)c4ccc(O)c(O)c4Cl)nn3)S[C@H]12)c1csc(N)n1)C(=O)O [Example 74]	1

Let us move to another entry and its MIC.
Task item: Using the record for C[C@H]1CN(/N=C/CNC(=O)c2ccc(O)c(O)c2Cl)C(=O)N1[C@]1(C(=O)O)CN2C(=O)C(NC(=O)/C(=N\OC(C)(C)C(=O)O)c3csc(N)n3)[C@H]2S1 (stereo partly drawn) [Example 45] , report its MIC.
Reply: 1

* * *

System: VIM-2-containing Pseudomonas aeruginosa strain (S-3779)
test-name: Antibacterial activity evaluation test, MIC by broth microdilution (CLSI)
Type: cell-based
assay-context: Pseudomonas aeruginosa
property-name: MIC (µg/mL)
Give bare numbers, in µg/mL.

Here is how some compounds turned out for MIC.
compound	MIC [µg/mL]
Nc1nc(/C(=N/O[C@@H](CO)C(=O)O)C(=O)NC2C(=O)N3C[C@@](C(=O)O)(N4CCN(NC(=O)C(=O)c5ccc(O)c(O)c5Cl)C4=O)S[C@H]23)cs1 (stereo partly shown) [Example 113]	0.5
CC(C)(O/N=C(\C(=O)N[C@@H]1C(=O)N2C[C@@](C(=O)O)(N3CCN(NC(=O)CCNC(=O)C(=O)c4ccc(O)c(O)c4Cl)C3=O)S[C@H]12)c1csc(N)n1)C(=O)O [Example 30]	0.5
CC(C)(O/N=C(\C(=O)N[C@@H]1C(=O)N2C[C@@](C(=O)O)(N3CC(CNC(=O)c4ccc(O)c(O)c4Cl)OC3=O)S[C@H]12)c1csc(N)n1)C(=O)O (stereo partly shown) [Example 73]	1
CC(C)(O/N=C(\C(=O)N[C@@H]1C(=O)N2C[C@@](C(=O)O)(N3CCN(NC(=O)C(=O)c4ccc(O)c(O)c4Cl)C3=O)S[C@H]12)c1nsc(N)n1)C(=O)O [Example 23]	0.25
CC(C)(O/N=C(\C(=O)N[C@@H]1C(=O)N2C[C@@](C(=O)O)(N3CCN(NC(=O)c4ccc(O)c(O)c4Cl)C3=O)S[C@H]12)c1csc(N)n1)C(=O)O [Example 2]	0.25
CC(C)(O/N=C(\C(=O)NC1C(=O)N2C[C@@](C(=O)O)(N3CCN(NC(=O)/C(=N\O)c4ccc(O)c(O)c4Cl)C3=O)S[C@H]12)c1csc(N)n1)C(=O)O (stereo partly shown) [Example 117]	0.5

Record MIC for all entries; do not skip any.
1. CC(C)(O/N=C(\C(=O)N[C@@H]1C(=O)N2C[C@@](C(=O)O)(N3CCN(NC(=O)C(=O)c4ccc(O)c(O)c4Cl)C3=O)S[C@H]12)c1nc(N)sc1Cl)C(=O)O [Example 22]
2. CC(C)(O/N=C(\C(=O)N[C@@H]1C(=O)N2C[C@@](C(=O)O)(N3CC[C@H](NC(=O)C(=O)c4ccc(O)c(O)c4Cl)C3=O)S[C@H]12)c1csc(N)n1)C(=O)O [Example 84]

Reply:
[0.25, 0.5]

// input: 2 compounds below; output: MIC for each
1. CC(C)(O/N=C(\C(=O)N[C@@H]1C(=O)N2C[C@@](C(=O)O)(N3CCCN(NC(=O)C(=O)c4ccc(O)c(O)c4Cl)C3=O)S[C@H]12)c1csc(N)n1)C(=O)O [Example 86]
2. CC(C)[C@H](O/N=C(\C(=O)NC1C(=O)N2C[C@@](C(=O)O)(N3CCN(NC(=O)C(=O)c4ccc(O)c(O)c4Cl)C3=O)S[C@H]12)c1csc(N)n1)C(=O)O (stereo partly shown) [Example 114]

Reply:
2
1

Value source: patent US20220241249A1
